// values below are reported cytotoxicity at 10 µM
- protocol: Toxicity liver stage against HepG2, at 10uM
- Type: cell-based
- Set-up: test concentration 10 uM, cell line HepG2-A16-CD81EGFP
- measurement conditions: human, HepG2-A16-CD81EGFP cells; read-out: INHIBITION
Field format: number, assumed %, no unit text.

Exam item: For the compound shown here, `O=C(c1ccoc1)N1CCc2ncc(Cn3cccn3)n2CC1` , give the reported cytotoxicity at 10 µM.
Marked response: 6.9

Exam item: For the compound shown here, CC(C(=O)Nc1cccc(C(F)(F)F)c1)N(C)CCN1CCOCC1 (stereo unspecified) , give the reported cytotoxicity at 10 µM.
Marked response: 9.54

Exam item: For the compound shown here, `Cc1csc2ncc(-c3ccnc(N4CCN(C)CC4)n3)c(=O)n12` , give the reported cytotoxicity at 10 µM.
Marked response: 9.43

Exam item: For the compound shown here, `CCCc1ccc(C(=O)N2CCn3c(nnc3C(C)C)C2)cc1` , give the reported cytotoxicity at 10 µM.
Marked response: 9.83

----------
- protocol: Toxicity liver stage against HepG2, at 10uM
- Format: cell-based
- Set-up: test concentration 10 uM, cell line HepG2-A16-CD81EGFP
- measurement conditions: human, HepG2-A16-CD81EGFP cells; read-out: INHIBITION
// values below are reported cytotoxicity at 10 µM
Field format: number, assumed %, no unit text.

{"molecule": "CN(C)Cc1cnc(C2CCN(C(=O)c3cccc(Cl)c3)C2)[nH]1 (configuration not stated)", "cytotoxicity at 10 µM [%]": -3.36}

Exam item: For the molecule shown here, `Cc1ccc(N2CCO[C@H]3CN(Cc4cccnc4)C[C@H]32)nn1` , give the reported cytotoxicity at 10 µM.
Marked response: -81.3

Exam item: For the molecule shown here, `NCC1(c2cccc(C(F)(F)F)c2)CCOCC1` , give the reported cytotoxicity at 10 µM.
Marked response: -11.1

----------
// values below are reported cytotoxicity at 10 µM
- protocol: Toxicity liver stage against HepG2, at 10uM
- Assay type: cell-based
- Parameters: test concentration 10 uM, cell line HepG2-A16-CD81EGFP
- measurement conditions: human, HepG2-A16-CD81EGFP cells; read-out: INHIBITION
Field format: number, assumed %, no unit text.

Field: example entries. Status: answers known.
{"compound": "O=C(Cc1ccccn1)N1CCN(C(=O)CC2CCCCC2)CC1", "unit info": "%", "cytotoxicity at 10 µM": 5.35}
{"compound": "CN(Cc1ccco1)C(=O)CN1CCOC(Cn2cccn2)C1 (stereo not given)", "unit info": "%", "cytotoxicity at 10 µM": -9.91}
{"compound": "CCC(CO)N(Cc1ccco1)Cc1c(C)nn(C)c1Cl (stereo not given)", "unit info": "%", "cytotoxicity at 10 µM": 7.4}
{"compound": "CC(NCc1ccco1)c1nnc2n1CCCC2 (stereo not given)", "unit info": "%", "cytotoxicity at 10 µM": -2.34}
{"compound": "COc1ccc(C)cc1CN1CCCC1c1noc(C2CC2)n1 (stereo not given)", "unit info": "%", "cytotoxicity at 10 µM": 16.3}
{"compound": "CN(CCc1ccccn1)C(=O)Nc1cc(C(F)(F)F)c[nH]c1=O", "unit info": "%", "cytotoxicity at 10 µM": 17.2}

Exam item: For the compound shown here, `Cc1ccc2c(n1)N(CCN(C)C)CCN(C(=O)c1cccs1)C2` , give the reported cytotoxicity at 10 µM.
Marked response: -69.8

Exam item: For the compound shown here, `Cc1nccnc1C1CCN(C(=O)C(C)C)CC1` , give the reported cytotoxicity at 10 µM.
Marked response: 3.25

Exam item: For the compound shown here, `COCCn1ccc(NC(=O)Nc2ccncc2)n1` , give the reported cytotoxicity at 10 µM.
Marked response: 4.49

Exam item: For the compound shown here, `COCCn1cc(NCc2cn(C)nc2-c2ccncc2)cn1` , give the reported cytotoxicity at 10 µM.
Marked response: 2.03

Exam item: For the compound shown here, CC1CCN(CC(=O)NC(C#N)c2cnn(-c3ccccc3)c2)CC1 (stereo not given) , give the reported cytotoxicity at 10 µM.
Marked response: 0.724

Exam item: For the compound shown here, `Cc1cc(NC(=O)CN2CCc3c(nc(C(C)C)n3C)C2)on1` , give the reported cytotoxicity at 10 µM.
Marked response: -3.17

Exam item: For the compound shown here, `CCOC(=O)c1n[nH]cc1-c1cncn1CCn1nc(C)c(Cl)c1C` , give the reported cytotoxicity at 10 µM.
Marked response: -15.1

Exam item: For the compound shown here, c1ccc(Cn2cccn2)c(CN2CCCCC2CCn2ccnc2)c1 (stereo not given) , give the reported cytotoxicity at 10 µM.
Marked response: -12

Exam item: For the compound shown here, CC(C)COc1cncc(NC(CO)c2ccco2)n1 (stereo not given) , give the reported cytotoxicity at 10 µM.
Marked response: -5.08

Exam item: For the compound shown here, CCN1CCCC(O)(c2nc(C)c(CCOc3ccccc3Cl)s2)CC1 (stereo not given) , give the reported cytotoxicity at 10 µM.
Marked response: -26.2

Exam item: For the compound shown here, `Cc1ccc(NC(=O)CNc2ccccc2C(N)=O)c(C)c1` , give the reported cytotoxicity at 10 µM.
Marked response: 1.15

Exam item: For the compound shown here, Cc1cc(C2CCCN2C(=O)NCc2cccnc2N(C)C)on1 (stereo not given) , give the reported cytotoxicity at 10 µM.
Marked response: -8.1
